Exercise: state measured competition rate for each of the binders provided.
ASSAYED SYSTEM: T1, human MSLN-FL-his protein (human, UniProt Q13421 296-580)
T1 construct: made in HEK293E cells, purified on nickel column; also called hMSLN-FL-his; human MSLN full-length protein; not shown: His tag
T1 sequence (Q13421 other isoform, or with tags, fused parts or gaps): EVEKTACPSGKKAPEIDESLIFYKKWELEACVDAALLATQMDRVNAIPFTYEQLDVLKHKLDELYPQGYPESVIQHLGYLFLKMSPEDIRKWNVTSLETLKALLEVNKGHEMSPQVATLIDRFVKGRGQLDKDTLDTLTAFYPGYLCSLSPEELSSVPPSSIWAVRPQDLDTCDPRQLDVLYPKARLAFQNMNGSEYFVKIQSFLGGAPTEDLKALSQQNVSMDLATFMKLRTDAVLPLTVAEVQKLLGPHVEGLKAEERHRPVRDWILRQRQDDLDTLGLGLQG
MEASUREMENT DESCRIPTION: competitive ELISA; row F8-31.22; also: test concentration or dose not given here

Below: 2 binders and their reported competition rate.
S009-F8-5.15 (antibody, human IgG1, kappa, V domains shown, human-murine chimeric antibody, human IgG1/kappa constant regions) VH: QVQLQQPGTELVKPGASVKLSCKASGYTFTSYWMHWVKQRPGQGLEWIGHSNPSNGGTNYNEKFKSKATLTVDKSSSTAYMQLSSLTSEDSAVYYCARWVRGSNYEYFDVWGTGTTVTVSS VL: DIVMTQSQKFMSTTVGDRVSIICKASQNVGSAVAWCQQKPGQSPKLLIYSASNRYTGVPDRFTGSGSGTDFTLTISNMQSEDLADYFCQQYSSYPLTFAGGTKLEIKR ... 79%
S009-F8-19.21 (antibody, human IgG1, kappa, V domains shown, human-murine chimeric antibody, human IgG1/kappa constant regions) VH: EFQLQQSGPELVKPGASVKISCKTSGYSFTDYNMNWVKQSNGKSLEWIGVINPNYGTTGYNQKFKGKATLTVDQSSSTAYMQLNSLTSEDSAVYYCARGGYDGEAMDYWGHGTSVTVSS VL: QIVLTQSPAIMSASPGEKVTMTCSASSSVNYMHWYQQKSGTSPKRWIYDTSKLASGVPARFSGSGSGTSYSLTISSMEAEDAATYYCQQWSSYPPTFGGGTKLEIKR ... 98.5%

Exercise: What value of competition rate has been reported for the following binder? S009-F8-15.19 (antibody, human IgG1, kappa, V domains shown, human-murine chimeric antibody, human IgG1/kappa constant regions) VH: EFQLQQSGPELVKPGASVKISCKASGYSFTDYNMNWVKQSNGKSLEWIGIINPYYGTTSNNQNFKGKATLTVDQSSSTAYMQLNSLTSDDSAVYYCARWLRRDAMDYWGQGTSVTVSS VL: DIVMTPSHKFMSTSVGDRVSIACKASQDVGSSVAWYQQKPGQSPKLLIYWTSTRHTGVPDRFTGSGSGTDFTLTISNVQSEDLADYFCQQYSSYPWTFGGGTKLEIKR
Key: 90.7%

These entries and their values trace back to patent US20250250357A1.
